Tested on: COLO 205
Experiment: Cytotoxicity against human COLO205 cells after 48 hrs by MTT assay
Type: functional, cell-based
Details: COLO 205, 48 h
Hi there, I'd appreciate the recorded IC50 for every entry that follows.
The answer is to be given in µg/mL; state only the numeric part.

// query IC50 value for entry `C=C[C@@]1(C)COC(=O)[C@]12O[C@]1(c3ccccc3)[C@H](C2=O)[C@H]2[C@H]([C@H](C)CCC=C(C)C)CC=C(C)[C@H]21`
26.9

// query IC50 value for entry C=C[C@@]1(C)COC(=O)C1C(=O)/C=C(\O)c1ccccc1 (stereo partly drawn)
37.5

* * *

System: COLO 205
Test: Cytotoxicity against human COLO205 cells after 48 hrs by MTT assay
Assay type: functional, cell-based
Details: COLO 205, 48 h
Hi there, I'd appreciate the recorded IC50 for every entry that follows.
The answer is to be given in µg/mL; state only the numeric part.

Form: Entry = C=C[C@@]1(C)COC(=O)C1(O)C(=O)/C=C(\O)c1ccccc1 (some centres not stated) | System = COLO 205 | IC50 = ____
79

Form: Entry = COc1cccc2c1C(=O)c1c(O)c3c(c(O)c1C2=O)C[C@@](O)(C(C)=O)C[C@@H]3O[C@H]1C[C@H](N)[C@H](O)[C@H](C)O1 [DAUNORUBICIN] | System = COLO 205 | IC50 = ____
0.5

Form: Entry = OC[C@H]1[C@@H](Cc2ccc3c(c2)OCO3)CO[C@@H]1c1ccc2c(c1)OCO2 [DIHYDROSESAMIN] | System = COLO 205 | IC50 = ____
79

Form: Entry = COc1cc(/C=C/C(=O)OC[C@H](Cc2ccc(O)c(OC)c2)[C@H](CO)Cc2ccc(O)c(OC)c2)ccc1O [HANULTARIN] | System = COLO 205 | IC50 = ____
16.8

Form: Entry = `COc1cc(/C=C/C(=O)OC[C@H](Cc2ccc(O)c(OC)c2)[C@H](COC(=O)/C=C/c2ccc(O)c(OC)c2)Cc2ccc(O)c(OC)c2)ccc1O` | System = COLO 205 | IC50 = ____
5.2

Form: Entry = C=C[C@@]1(C)COC(=O)[C@]12OC(c1ccccc1)=CC2=O [HYPERLACTONE C] | System = COLO 205 | IC50 = ____
58.5
